- assayedTarget: UniProtKB Q96GD4
- Sequence (Q96GD4 whole entry, looked up): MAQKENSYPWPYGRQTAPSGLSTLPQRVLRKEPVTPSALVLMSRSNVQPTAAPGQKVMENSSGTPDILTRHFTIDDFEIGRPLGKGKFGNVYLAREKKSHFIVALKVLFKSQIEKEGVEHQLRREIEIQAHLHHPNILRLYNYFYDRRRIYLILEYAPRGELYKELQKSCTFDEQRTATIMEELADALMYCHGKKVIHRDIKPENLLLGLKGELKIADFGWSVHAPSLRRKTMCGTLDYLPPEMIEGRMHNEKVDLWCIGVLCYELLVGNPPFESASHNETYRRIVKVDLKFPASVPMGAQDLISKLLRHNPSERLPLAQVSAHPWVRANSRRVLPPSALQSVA
- experimentNotes: KINOMEscan competition binding
- assaySetup: compound 10.0 µM
measuredParameter: kinase still bound, per cent of control (%)

substanceSmiles: O=C(Nc1cccc(Nc2ncc(Br)c(NCCc3cnc[nH]3)n2)c1)N1CCCC1
valueUnits: %
recordedResult: 0
--
substanceSmiles: CN(C)C/C=C/C(=O)Nc1ccc(C(=O)Nc2cccc(Nc3nccc(-c4cccnc4)n3)c2)cc1
valueUnits: %
recordedResult: 22
--
substanceSmiles: C=CC(=O)Nc1cc(-n2c(=O)ccc3cnc4ccc(-c5cn[nH]c5)cc4c32)ccc1C
valueUnits: %
recordedResult: 97
--
substanceSmiles: COc1cc2ncnc(-n3nc(-c4ccccn4)nc3N)c2cc1OC
valueUnits: %
recordedResult: 0.4
--
substanceSmiles: CCN(CC)CCCCNc1ncc2c(n1)N(C)C(=O)N(c1c(Cl)c(OC)cc(OC)c1Cl)C2
valueUnits: %
recordedResult: 100
--
substanceSmiles: CCN1CCN(C(=O)Cc2ccc(Nc3ncc(F)c(Nc4ccc(C(=O)Nc5ccccc5Cl)cc4)n3)cc2)CC1
valueUnits: %
recordedResult: 14

---

Known kinase still bound, per cent of control of a selection of molecules
- assayedTarget: ERBB3 (human)
- experimentNotes: KINOMEscan competition binding
- assaySetup: compound 10.0 µM
measuredParameter: kinase still bound, per cent of control (%)

substanceSmiles: COc1cc2ncnc(-n3nc(-c4ccccn4)nc3N)c2cc1OC
valueUnits: %
recordedResult: 9
--
substanceSmiles: C[C@@H](Oc1cc(-c2cnn(C3CCNCC3)c2)cnc1N)c1c(Cl)ccc(F)c1Cl
valueUnits: %
recordedResult: 81
--
substanceSmiles: NC(=O)Nc1cc(-c2cccc(F)c2)sc1C(=O)N[C@@H]1CCCNC1
valueUnits: %
recordedResult: 28
--
substanceSmiles: CNC(=O)c1cc(Oc2ccc(NC(=O)Nc3ccc(Cl)c(C(F)(F)F)c3)cc2)ccn1
valueUnits: %
recordedResult: 100
--
substanceSmiles: O=C(Nc1cccc(Nc2ncc(Br)c(NCCc3cnc[nH]3)n2)c1)N1CCCC1
valueUnits: %
recordedResult: 41
--
substanceSmiles: CN(C)C/C=C/C(=O)Nc1ccc(C(=O)Nc2cccc(Nc3nccc(-c4cccnc4)n3)c2)cc1
valueUnits: %
recordedResult: 57
--
substanceSmiles: CCN(CC)CCCCNc1ncc2c(n1)N(C)C(=O)N(c1c(Cl)c(OC)cc(OC)c1Cl)C2
valueUnits: %
recordedResult: 100

---

- assayedTarget: JAK1 JH1 catalytic (human) (UniProt P23458)
- Sequence (P23458 whole entry, looked up): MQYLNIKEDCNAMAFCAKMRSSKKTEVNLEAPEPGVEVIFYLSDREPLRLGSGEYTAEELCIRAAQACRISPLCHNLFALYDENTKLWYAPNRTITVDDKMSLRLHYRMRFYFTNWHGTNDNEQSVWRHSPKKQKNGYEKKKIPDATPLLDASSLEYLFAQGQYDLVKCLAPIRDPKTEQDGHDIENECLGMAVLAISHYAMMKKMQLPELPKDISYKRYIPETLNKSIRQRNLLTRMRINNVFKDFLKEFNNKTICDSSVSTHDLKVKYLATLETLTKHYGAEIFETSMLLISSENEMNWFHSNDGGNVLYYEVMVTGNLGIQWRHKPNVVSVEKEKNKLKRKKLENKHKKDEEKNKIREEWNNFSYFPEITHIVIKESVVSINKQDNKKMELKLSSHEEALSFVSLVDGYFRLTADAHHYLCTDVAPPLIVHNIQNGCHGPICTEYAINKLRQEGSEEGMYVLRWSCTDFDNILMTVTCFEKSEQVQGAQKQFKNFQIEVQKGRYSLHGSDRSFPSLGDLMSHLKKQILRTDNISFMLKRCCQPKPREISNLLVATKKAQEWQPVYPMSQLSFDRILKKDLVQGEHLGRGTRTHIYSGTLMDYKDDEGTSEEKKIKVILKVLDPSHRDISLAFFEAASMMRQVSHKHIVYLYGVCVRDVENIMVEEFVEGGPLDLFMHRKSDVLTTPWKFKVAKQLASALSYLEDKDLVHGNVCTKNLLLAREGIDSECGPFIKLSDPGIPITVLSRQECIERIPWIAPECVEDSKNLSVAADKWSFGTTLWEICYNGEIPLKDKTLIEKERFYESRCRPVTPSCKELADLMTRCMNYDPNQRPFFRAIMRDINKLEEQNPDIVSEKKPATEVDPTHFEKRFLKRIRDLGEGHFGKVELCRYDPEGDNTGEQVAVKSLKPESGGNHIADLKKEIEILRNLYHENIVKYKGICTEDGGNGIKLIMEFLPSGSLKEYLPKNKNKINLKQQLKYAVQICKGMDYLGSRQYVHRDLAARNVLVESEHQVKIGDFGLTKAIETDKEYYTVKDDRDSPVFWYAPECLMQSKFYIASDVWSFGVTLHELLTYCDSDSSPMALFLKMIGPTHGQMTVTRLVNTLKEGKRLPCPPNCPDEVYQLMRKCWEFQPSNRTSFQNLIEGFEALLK
- experimentNotes: KINOMEscan competition binding
- assaySetup: compound 10.0 µM
Known kinase still bound, per cent of control of a selection of molecules

substanceSmiles: COc1ccc(N(C(=O)Oc2c(C)cccc2C)c2ccnc(Nc3ccc(N4CCN(C)CC4)cc3)n2)c(OC)c1
assayedTarget: JAK1 JH1 catalytic (human) (UniProt P23458)
kinase still bound, per cent of control (%): 36
//
substanceSmiles: CN(C)C/C=C/C(=O)Nc1ccc(C(=O)Nc2cccc(Nc3nccc(-c4cccnc4)n3)c2)cc1
assayedTarget: JAK1 JH1 catalytic (human) (UniProt P23458)
kinase still bound, per cent of control (%): 100
//
substanceSmiles: C[C@@H](Oc1cc(-c2cnn(C3CCNCC3)c2)cnc1N)c1c(Cl)ccc(F)c1Cl
assayedTarget: JAK1 JH1 catalytic (human) (UniProt P23458)
kinase still bound, per cent of control (%): 0.45
//
substanceSmiles: CNC(=O)c1ccc(Nc2cc(Nc3ccccc3S(=O)(=O)C(C)C)c3cc[nH]c3n2)nc1
assayedTarget: JAK1 JH1 catalytic (human) (UniProt P23458)
kinase still bound, per cent of control (%): 2

Values compiled from the kinase profiling compilation of Christmann-Franck et al. (2016).
